Provenance of the data: PubChem BioAssay (NCI)

- System: LOX IMVI melanoma
- PROTOCOL: NCI tumour cell line growth inhibition, 48 h; in the data active means GI50 below about 0.43 µM; inactive means the rest
Just give me one of these, please: active, inactive

Which outcome was entered for the compound "S=C(N/N=C/c1cc(Cl)cc(Cl)c1)NC12CC3CC(CC(C3)C1)C2" in this test?
inactive

And what about the compound "CC1(C)N=C(N)N=C(N)N1c1ccc(CCc2ccccc2)c(Cl)c1" ?
active

And what about the compound Cc1ccc(C(=O)/C(=C/c2ccc([N+](=O)[O-])cc2)S(=O)Cc2ccccc2)cc1 (stereo unspecified) ?
active

And what about the compound "COc1ccc(-c2cc(-c3ccc(Cl)cc3)c(C#N)c(=O)n2CCCCC(=O)Nc2ccccc2N)cc1" ?
inactive

And what about the compound "COc1ccc(C(=O)N2c3ccccc3Sc3ccccc32)c(F)c1" ?
inactive

And what about the compound "CCN(CCCCCCCCCCN1CC(=O)N(CCCCCCCCCCN(CC)Cc2ccccc2OC)CC1=O)Cc1ccccc1OC" ?
inactive

* * *

Provide the reported TGI of each item.
- System: UACC-257 melanoma
- PROTOCOL: NCI tumour cell line growth inhibition, 48 h

What measured TGI goes with "COc1ccc(Cl)cc1Nc1nc(C(F)(F)F)ccc1C(=O)NN" ?
> 30.2 µM

And what about the compound CCN(c1ccc(CO)c(Cl)c1)C(C)c1ccc(F)cc1 (stereo unspecified) ?
12.8 µM

And what about the compound CCOC(=O)/C=C(/C=C\COC1CCCCO1)c1ccccc1 (stereo unspecified) ?
> 100 µM

And what about the compound "CN(C)CCCNc1cc(O)c2c(c1O)C(=O)c1ccccc1C2=O" ?
26.6 µM

And what about the compound "Oc1c(OCc2nnc(CCCCCCCCc3nnc(COc4ccc5ccccc5c4O)o3)o2)ccc2ccccc12" ?
> 100 µM

And what about the compound "CC(C)(C)OC(=O)NCC(C#N)CNC(=O)OC(C)(C)C" ?
> 100 µM

And what about the compound "Cc1cc(Cl)ccc1NC(=O)C(=O)Cc1nc2ccc(C(=O)c3ccccc3)cc2[nH]c1=O" ?
> 100 µM

And what about the compound "CNC(=S)NNc1ncnc2c1c(-c1ccc(Cl)cc1)cn2-c1ccc(C)cc1" ?
27 µM

And what about the compound "Cc1cc2c(C(C)C)c(O)c(O)c(C=Nc3cc(C(F)(F)F)ccc3Cl)c2c(O)c1-c1c(C)cc2c(C(C)C)c(O)c(O)c(C=Nc3cc(C(F)(F)F)ccc3Cl)c2c1O" ?
> 100 µM

And what about the compound "COc1cc(OC)cc(Oc2nc3cc(F)c(F)cc3nc2-c2ccccc2)c1" ?
> 100 µM

And what about the compound "Nc1cc2c3c(cccc3c1)NC2=O" ?
> 100 µM

* * *

- Test system: HCT-116 colon
- PROTOCOL: NCI tumour cell line growth inhibition, 48 h; in the data active = GI50 below about 0.43 µM; inactive = the rest
Just give me one of these, please: active, inactive

Which outcome was entered for the compound "COc1ccc(C(=O)N2c3ccccc3Sc3ccccc32)c(F)c1" in this test?
active

And what about the compound "Fc1cccc(COc2ccc(Nc3ncnc4sc(-c5ccco5)cc34)cc2Cl)c1" ?
inactive

And what about the compound "Cn1cc(C2=C(c3cn(C)c4ccc(N)cc34)C(=O)NC2=O)c2ccccc21" ?
inactive

And what about the compound COC(=O)C1=C(OC(=O)c2ccc(Cl)cc2)C(C(=O)OC)[C@@]2(O)[C@@H](C(=O)OC)C(c3ccccc3C(F)(F)F)C[C@@H]1[C@@H]2C(=O)OC (stereo partly drawn) ?
inactive

And what about the compound CCN(c1ccc(CO)c(Cl)c1)C(C)c1ccc(F)cc1 (stereo not drawn) ?
inactive

And what about the compound "COc1ccc(Cl)cc1Nc1nc(C(F)(F)F)ccc1C(=O)NN" ?
inactive

And what about the compound "Cc1cccc(NC(=O)c2sc3nc4c(cc3c2N)CCCC4)c1C" ?
inactive

And what about the compound "Cc1ccc(C(=O)Nc2ccc(CN3CCN(C)CC3)c(C(F)(F)F)c2)cc1C#Cc1cnc(N)c2ccc(F)cc12" ?
active
